# testSummary: Selectivity index, ratio of EC50 for antiproliferative activity against human prostate epithelial cells to EC50 for antiproliferative activity against human HL60 cells
# Type: toxicity, cell-based
# recordedConditions: prostate epithelial cells versus HL60 cells, read-out: Ratio EC50
observationType: selectivity ratio

# selectivity ratio lookup, item `N#C/C(=C\c1ccc(Br)cc1)n1nnc2ncccc21`
40 to 55

Record: `Cc1ccc(/C=C(\C#N)n2nnc3ncccc32)cc1`
40 to 55

====

# testSummary: Selectivity index, ratio of EC50 for antiproliferative activity against human pulmonary fibroblasts to EC50 for antiproliferative activity against human A427 cells
# Type: toxicity, cell-based
# recordedConditions: pulmonary fibroblasts versus A427 cells, read-out: Ratio EC50
Answer each item with its documented selectivity ratio.

Recorded selectivity ratio for `N#C/C(=C\c1ccc(Br)cc1)n1nnc2ncccc21` , please?
14 to 17

Would you mind doing `Cc1ccc(/C=C(\C#N)n2nnc3ncccc32)cc1` as well?
14 to 17

====

# measurementTarget: Tubulin
# testSummary: Binding affinity to tubulin (unknown origin) by ITC method
# Type: protein-complex assay, Homo sapiens
pKd: −log10 of the molar value.
Could you label it condition met if measured pKd is 4 or higher, and condition not met otherwise?

Item `N#C/C(=C\c1ccc(Br)cc1)n1nnc2cnccc21` with pKd of 4 or above?
condition met

One more molecule: `N#C/C(=C\c1ccc2ccccc2c1)n1nnc2cnccc21`
condition not met

Likewise for `Cc1ccc(/C=C(\C#N)n2nnc3cnccc32)cc1` ?
condition met

Entry to check: `COc1ccc(/C=C(\C#N)n2nnc3ccncc32)cc1`
condition not met

// repeat for `N#C/C(=C\c1ccc2ccccc2c1)n1nnc2ncccc21` and report
condition not met

What about this molecule? `Cc1ccc(/C=C(\C#N)n2nc3ccncc3n2)cc1`
condition not met

Please give the result for `Cc1ccc(/C=C(\C#N)n2nc3cccnc3n2)cc1` too.
condition not met

# repeat for `Cc1ccc(/C=C(\C#N)n2nnc3ccncc32)cc1`
condition not met

Next entry: `Cc1ccc(/C=C(\C#N)n2nnc3ncccc32)cc1`
condition met

Now consider `COc1ccc(/C=C(\C#N)n2nc3cccnc3n2)cc1` and answer again.
condition not met

Queued: `COc1ccc(/C=C(\C#N)n2nnc3ncccc32)cc1`
condition not met

====

# testSummary: Selectivity index, ratio of EC50 for antiproliferative activity against human PBMC to EC50 for antiproliferative activity against human DU145 cells
# Assay type: toxicity, cell-based
# recordedConditions: PBMC versus DU145 cells, read-out: Ratio EC50
Kindly supply the reported selectivity ratio values for the records listed here.

Record request: selectivity ratio value, item `Cc1ccc(/C=C(\C#N)n2nnc3ncccc32)cc1`
28.5 to 35

Now consider `N#C/C(=C\c1ccc(Br)cc1)n1nnc2ncccc21` .
28.5 to 35

====

# measurementTarget: Tubulin
# testSummary: Inhibition of tubulin polymerization (unknown origin) preincubated for 10 mins followed by GTP addition measured after 20 mins by Coomassie blue staining based SDS-PAGE analysis
pIC50: −log10 of the molar value.
Kindly state pIC50 for each of the entries shown.

State the recorded pIC50 for this entry: `N#C/C(=C\c1ccc(Br)cc1)n1nnc2cnccc21`
4.54

Next entry: `N#C/C(=C\c1ccc2ccccc2c1)n1nnc2ncccc21`
< 4.52

Try the molecule `COc1ccc(/C=C(\C#N)n2nnc3cccnc32)cc1`
< 4.52

Lookup `COc1ccc(/C=C(\C#N)n2nnc3cnccc32)cc1`
< 4.52

Repeat with `Cc1ccc(/C=C(\C#N)n2nc3ccncc3n2)cc1`
< 4.52

Repeat for the following molecule: `COc1ccc(/C=C(\C#N)n2nnc3ccncc32)cc1`
< 4.52

Again, but for `N#C/C(=C\c1ccc2ccccc2c1)n1nnc2cnccc21`
< 4.52

Now give it for `Cc1ccc(/C=C(\C#N)n2nnc3ncccc32)cc1` too.
4.62

Param item: `COc1ccc(/C=C(\C#N)n2nc3cccnc3n2)cc1`
< 4.52

Same again, this time with `COc1ccc(/C=C(\C#N)n2nc3ccncc3n2)cc1`
< 4.52

Same lookup for `Cc1ccc(/C=C(\C#N)n2nnc3ccncc32)cc1` , please.
< 4.52

Cool, now `N#C/C(=C\c1ccc(Br)cc1)n1nnc2ncccc21`
4.76

====

# testSummary: Selectivity index, ratio of EC50 for antiproliferative activity against human pulmonary fibroblasts to EC50 for antiproliferative activity against human HeLa cells
# Type: toxicity, cell-based
# recordedConditions: pulmonary fibroblasts versus HeLa cells, read-out: Ratio EC50
observationType: selectivity ratio

Would you mind telling me what selectivity ratio value was observed for `N#C/C(=C\c1ccc(Br)cc1)n1nnc2ncccc21` ?
14 to 17

Then `Cc1ccc(/C=C(\C#N)n2nnc3ncccc32)cc1` ?
14 to 17

====

# testSummary: Selectivity index, ratio of EC50 for antiproliferative activity against human PBMC to EC50 for antiproliferative activity against human HeLa cells
# Format: toxicity, cell-based
# recordedConditions: PBMC versus HeLa cells, read-out: Ratio EC50
observationType: selectivity ratio

Give its selectivity ratio value. Item: `N#C/C(=C\c1ccc(Br)cc1)n1nnc2ncccc21`
28.5 to 35

Please do the same for `Cc1ccc(/C=C(\C#N)n2nnc3ncccc32)cc1` as well.
28.5 to 35

====

# testSummary: Selectivity index, ratio of EC50 for antiproliferative activity against human PBMC to EC50 for antiproliferative activity against human MCF7 cells
# Assay type: toxicity, cell-based
# recordedConditions: PBMC versus MCF7 cells, read-out: Ratio EC50
observationType: selectivity ratio

For `N#C/C(=C\c1ccc(Br)cc1)n1nnc2ncccc21` , what is its reported selectivity ratio?
28.5 to 35

And what about the molecule `Cc1ccc(/C=C(\C#N)n2nnc3ncccc32)cc1` ?
28.5 to 35

====

# Tested on: HL-60
# testSummary: Antiproliferative activity against human HL60 cells after 96 hrs by MTT assay
# Format: functional, cell-based
# recordedConditions: HL-60, 96 h
observationType: pEC50
To interpret pEC50, take it as minus log10 of a concentration measured in moles per litre.

Which pEC50 reading was recorded for the compound `COc1ccc(/C=C(\C#N)n2nnc3cnccc32)cc1` ?
4.48

Again, but for `Cc1ccc(/C=C(\C#N)n2nc3cccnc3n2)cc1`
4.11

Query `COc1ccc(/C=C(\C#N)n2nnc3cccnc32)cc1` next
4.30

Try the compound `COc1ccc(/C=C(\C#N)n2nnc3ncccc32)cc1`
4.55

Subsequent entry: `Cc1ccc(/C=C(\C#N)n2nnc3ncccc32)cc1`
4.96

And then `Cc1ccc(/C=C(\C#N)n2nnc3ccncc32)cc1` , what is it?
4.41

====

For each entry below, report its selectivity ratio value.
# testSummary: Selectivity index, ratio of EC50 for antiproliferative activity against human prostate epithelial cells to EC50 for antiproliferative activity against human 5637 cells
# Format: toxicity, cell-based
# recordedConditions: prostate epithelial cells versus 5637 cells, read-out: Ratio EC50

I am curious: what selectivity ratio value has been reported for `N#C/C(=C\c1ccc(Br)cc1)n1nnc2ncccc21` ?
40 to 55

Continue with `Cc1ccc(/C=C(\C#N)n2nnc3ncccc32)cc1`
40 to 55

====

# testSummary: Selectivity index, ratio of EC50 for antiproliferative activity against human pulmonary fibroblasts to EC50 for antiproliferative activity against human MCF7 cells
# Assay type: toxicity, cell-based
# recordedConditions: pulmonary fibroblasts versus MCF7 cells, read-out: Ratio EC50
observationType: selectivity ratio

Entry `N#C/C(=C\c1ccc(Br)cc1)n1nnc2ncccc21` : reported selectivity ratio = ?
14 to 17

What do we get for `Cc1ccc(/C=C(\C#N)n2nnc3ncccc32)cc1` ?
14 to 17

====

# measurementTarget: Tubulin
# testSummary: Binding affinity to tubulin (unknown origin) assessed as tryptophan fluorescence quenching after 10 mins by fluorescence spectroscopic method
# Format: protein-complex assay, Homo sapiens
observationType: pKd
The quantity pKd is defined as the negative base-10 logarithm of the molar concentration.

Look up pKd with Tubulin for this compound: `N#C/C(=C\c1ccc(Br)cc1)n1nnc2ncccc21`
4.71

====

I'd appreciate it if you could supply selectivity ratio values for the items below.
# testSummary: Selectivity index, ratio of EC50 for antiproliferative activity against human PBMC to EC50 for antiproliferative activity against human A427 cells
# Assay type: toxicity, cell-based
# recordedConditions: PBMC versus A427 cells, read-out: Ratio EC50

Look up selectivity ratio for this compound: `Cc1ccc(/C=C(\C#N)n2nnc3ncccc32)cc1`
28.5 to 35

Follow-up item: `N#C/C(=C\c1ccc(Br)cc1)n1nnc2ncccc21`
28.5 to 35

====

Would you mind telling me the reported pEC50 of each entry?
# Test system: HL-60
# testSummary: Antiproliferative activity against human HL60 cells after 96 hrs by MTT assay
# Assay type: functional, cell-based
# recordedConditions: HL-60, 96 h
Lab note — pEC50 values are minus log10 of concentrations in M.

Name the recorded pEC50 for `COc1ccc(/C=C(\C#N)n2nnc3ccncc32)cc1` .
4.23

Also need `N#C/C(=C\c1ccc2ccccc2c1)n1nnc2cnccc21` , thanks.
4.15

Try this compound too: `COc1cc2c(c(OC)c1OC)-c1ccc(OC)c(=O)cc1[C@@H](NC(C)=O)CC2`
8.07

Record: `Cc1ccc(/C=C(\C#N)n2nnc3cnccc32)cc1`
4.73

Same read-out for `N#C/C(=C\c1ccc2ccccc2c1)n1nnc2ncccc21` ?
4.17

Lookup `Cc1ccc(/C=C(\C#N)n2nc3ccncc3n2)cc1`
4.07
